// data source = patent US20240059704A1

System: T47D cell line
ASSAY INFO: Cell growth inhibition in T47D cell line
Type: cell-based
TEST CONTEXT: Homo sapiens, μM, class key in nM
Quick reference: IC50 of the listed items.

Examples from the recorded data:
INSERT INTO assay_data (compound, assay_system, result) VALUES
  ('O=C1CCC(N2Cc3c(ccc4c3OCC3(CN(CC5CCC6(CC5)CN(c5ccc([C@@H]7c8ccc(O)cc8CC[C@@H]7c7ccccc7)cc5)C6)C3)O4)C2=O)C(=O)N1 (stereo partly drawn) [THP-B376]', 'T47D cell line', '< 0.001 µM'),
  ('O=C1CCC(N2C(=O)c3cc4c(cc3C2=O)OC2(CO4)CN(CC3CC4(CCN(c5ccc([C@@H]6c7ccc(O)cc7CC[C@@H]6c6ccccc6)cc5)CC4)C3)C2)C(=O)N1 (stereo partly drawn) [THP-B385]', 'T47D cell line', '0.001 to 0.01 µM');

What the record says about O=C1CC[C@H](N2Cc3cc4c(cc3C2=O)OCC2(CN(CC3CC5(CCN(c6ccc([C@@H]7c8ccc(O)cc8CC[C@@H]7c7ccccc7)cc6)CC5)C3)C2)O4)C(=O)N1 [THP-B394] : IC50 is 0.001 to 0.01 µM

----------
Measured pIC50 values are reported for all entries that follow.
ASSAY SYSTEM: UniProt Q96SW2
Sequence (Q96SW2 whole entry): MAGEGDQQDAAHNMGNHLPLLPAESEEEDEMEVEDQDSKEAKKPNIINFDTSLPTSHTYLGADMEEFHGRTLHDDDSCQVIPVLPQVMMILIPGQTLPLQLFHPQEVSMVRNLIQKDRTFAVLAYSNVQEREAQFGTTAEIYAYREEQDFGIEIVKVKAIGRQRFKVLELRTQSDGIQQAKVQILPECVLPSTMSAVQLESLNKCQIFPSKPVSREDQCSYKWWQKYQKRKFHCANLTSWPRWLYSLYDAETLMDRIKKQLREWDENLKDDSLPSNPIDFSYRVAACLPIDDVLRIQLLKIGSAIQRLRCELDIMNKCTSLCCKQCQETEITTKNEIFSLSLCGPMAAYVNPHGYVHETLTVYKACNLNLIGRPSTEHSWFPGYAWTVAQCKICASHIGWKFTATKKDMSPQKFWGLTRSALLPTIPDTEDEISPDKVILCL
Keep in mind that pIC50 stands for -log10 of concentration in molar terms.

INSERT INTO results (compound, assay_system, measurement_label, measured_number) VALUES
  ('O=C1CC[C@H](N2Cc3c(ccc4c3OCC3(CCNCC3)O4)C2=O)C(=O)N1 [Compound B1]', 'UniProt Q96SW2', 'pIC50', 6.48);

The observed pIC50 for O=C1CCC(N2Cc3c(ccc4c3OCC3(CNC3)O4)C2=O)C(=O)N1 (centres unmarked) [Compound B2] when tested with UniProt Q96SW2 stands at 6.59

----------
ASSAY SYSTEM: UniProt P03372
ASSAY INFO: In-cell western blot analysis (ICW), relative ER percentage in treated cells
Format: cell-based
TEST CONTEXT: ER degradation, 16 hours
Items are presented alongside their recorded DC50.

// solved cases for DC50 follow
INSERT INTO assay_data (compound, measurement_label, result) VALUES
  ('O=C1CCC(N2Cc3c(ccc4c3OCC3(CN(CC5CCC6(CC5)CN(c5ccc([C@@H]7c8ccc(O)cc8CC[C@@H]7c7ccccc7)cc5)C6)C3)O4)C2=O)C(=O)N1 (stereo partly shown)', 'DC50', '10 to 100 nM'),
  ('O=C1CC[C@H](N2Cc3c(ccc4c3OCC3(CCN(CC5CCN(c6ccc([C@@H]7c8ccc(O)cc8CC[C@@H]7c7ccccc7)cc6)CC5)CC3)O4)C2=O)C(=O)N1', 'DC50', '10 to 100 nM'),
  ('O=C1CC[C@H](N2Cc3c(ccc4c3OCC3(CCN(CC5COC6(CCN(c7ccc([C@@H]8c9ccc(O)cc9CC[C@@H]8c8ccccc8)cc7)CC6)C5)CC3)O4)C2=O)C(=O)N1 (stereo partly shown)', 'DC50', '< 10 nM'),
  ('O=C1CC[C@H](N2Cc3cc4c(c(F)c3C2=O)OCC2(CCN(CC3CCN(c5ccc([C@@H]6c7ccc(O)cc7CC[C@@H]6c6ccccc6)cc5)CC3)CC2)O4)C(=O)N1', 'DC50', '> 100 nM'),
  ('O=C1CC[C@H](N2Cc3c(ccc4c3OCC3(CCN(CC5CC6(CCN(c7ccc([C@@H]8c9ccc(O)cc9CC[C@@H]8c8ccccc8)cc7)CC6)C5)CC3)O4)C2=O)C(=O)N1', 'DC50', '< 10 nM');

# input for lookup
Per the record, O=C1CC[C@H](N2Cc3c(ccc4c3OCC3(CCN(CC5CCC6(CCN(c7ccc([C@@H]8c9ccc(O)cc9CC[C@@H]8c8ccccc8)cc7)CC6)O5)CC3)O4)C2=O)C(=O)N1 (stereo partly shown) has DC50 of 10 to 100 nM

----------
System: T47D cell line
ASSAY INFO: Cell growth inhibition in T47D cell line
Assay type: cell-based
TEST CONTEXT: Homo sapiens, μM, class key in nM
MEASUREMENT LABEL: IC50

Consider the following illustrative entries.
INSERT INTO measurements (compound, result) VALUES
  ('O=C1CCC(N2Cc3c(ccc4c3OCC3(CN(CC5CCC6(CCN(c7ccc([C@@H]8c9ccc(O)cc9CC[C@@H]8c8ccccc8)cc7)CC6)OC5)C3)O4)C2=O)C(=O)N1 (some centres unmarked) [THP-B386]', '0.001 to 0.01 µM'),
  ('O=C1CC[C@H](N2Cc3c(ccc4c3OCC3(CCN(CC5COC6(CCN(c7ccc([C@@H]8c9ccc(O)cc9CC[C@@H]8c8ccccc8)cc7)CC6)C5)CC3)O4)C2=O)C(=O)N1 (some centres unmarked) [THP-B373]', '< 0.001 µM'),
  ('O=C1CC[C@H](N2Cc3cc4c(c(F)c3C2=O)OCC2(CCN(CC3CC5(CCN(c6ccc([C@@H]7c8ccc(O)cc8CC[C@@H]7c7ccccc7)cc6)CC5)C3)CC2)O4)C(=O)N1 [THP-B384]', '0.001 to 0.01 µM'),
  ('O=C1CC[C@H](N2Cc3c(ccc4c3OCC3(CCN(CC5CCC6(CCN(c7ccc([C@@H]8c9ccc(O)cc9CC[C@@H]8c8ccccc8)cc7)CC6)O5)CC3)O4)C2=O)C(=O)N1 (some centres unmarked) [THP-B372]', '0.001 to 0.01 µM'),
  ('O=C1CCC(N2Cc3c(ccc4c3OCC3(CN(CC5COC6(CCN(c7ccc([C@@H]8c9ccc(O)cc9CC[C@@H]8c8ccccc8)cc7)CC6)OC5)C3)O4)C2=O)C(=O)N1 (some centres unmarked) [THP-B377]', '< 0.001 µM');

Entry under test: O=C1CC[C@H](N2Cc3cc4c(c(F)c3C2=O)OCC2(CCN(CC3CCN(c5ccc([C@@H]6c7ccc(O)cc7CC[C@@H]6c6ccccc6)cc5)CC3)CC2)O4)C(=O)N1 [THP-B383] . Its IC50 was > 0.01 µM

The reported value for O=C1CCC(N2Cc3c(ccc4c3OCC3(CN(CC5CC6(CCN(c7ccc([C@@H]8c9ccc(O)cc9CC[C@@H]8c8ccccc8)cc7)CC6)C5)C3)O4)C2=O)C(=O)N1 (some centres unmarked) [THP-B368] in terms of IC50 is 0.001 to 0.01 µM

GET /value?item= O=C1CC[C@H](N2Cc3c(ccc4c3OCC3(CCN(CC5CC6(CCN(c7ccc([C@@H]8c9ccc(O)cc9CC[C@@H]8c8ccccc8)cc7)CC6)C5)CC3)O4)C2=O)C(=O)N1 [THP-B371] &field=IC50 returns < 0.001 µM

----------
ASSAY SYSTEM: ER (Homo sapiens (Human), UniProt P03372)
Sequence (P03372 whole entry): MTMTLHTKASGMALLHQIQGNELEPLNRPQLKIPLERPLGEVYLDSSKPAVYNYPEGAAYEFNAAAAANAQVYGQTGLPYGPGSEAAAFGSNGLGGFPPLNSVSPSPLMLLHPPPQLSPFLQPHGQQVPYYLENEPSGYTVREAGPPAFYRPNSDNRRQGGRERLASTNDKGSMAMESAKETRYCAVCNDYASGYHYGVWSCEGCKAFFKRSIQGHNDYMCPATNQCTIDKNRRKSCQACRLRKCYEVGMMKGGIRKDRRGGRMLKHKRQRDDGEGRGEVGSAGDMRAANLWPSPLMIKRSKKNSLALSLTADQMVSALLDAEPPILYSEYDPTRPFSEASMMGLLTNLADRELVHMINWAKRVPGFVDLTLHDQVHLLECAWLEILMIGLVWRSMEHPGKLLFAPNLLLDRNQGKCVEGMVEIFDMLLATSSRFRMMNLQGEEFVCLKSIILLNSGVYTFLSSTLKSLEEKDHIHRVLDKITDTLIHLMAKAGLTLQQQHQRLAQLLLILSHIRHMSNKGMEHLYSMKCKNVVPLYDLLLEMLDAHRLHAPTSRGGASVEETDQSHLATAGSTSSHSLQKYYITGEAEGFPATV
ASSAY INFO: In-cell western blot analysis (ICW), relative ER percentage in treated cells
Format: cell-based
TEST CONTEXT: ER degradation, 16 hours
MEASUREMENT LABEL: DC50

Study these solved cases before continuing.
INSERT INTO measurements (compound, result) VALUES
  ('O=C1CCC(N2C(=O)c3cc4c(cc3C2=O)OC2(CO4)CN(CC3CC4(CCN(c5ccc([C@@H]6c7ccc(O)cc7CC[C@@H]6c6ccccc6)cc5)CC4)C3)C2)C(=O)N1 (stereo partly drawn) [THP-B385]', '> 100 nM'),
  ('O=C1CCC(N2Cc3c(ccc4c3OCC3(CN(CC5CCN(c6ccc([C@@H]7c8ccc(O)cc8CC[C@@H]7c7ccccc7)cc6)CC5)C3)O4)C2=O)C(=O)N1 (stereo partly drawn) [THP-B367]', '> 100 nM');

The record that follows has no DC50 shown yet.
// sample O=C1CCC(N2Cc3c(ccc4c3OCC3(CN(CC5CC6(CCN(c7ccc([C@@H]8c9ccc(O)cc9CC[C@@H]8c8ccccc8)cc7)CC6)C5)C3)O4)C2=O)C(=O)N1 (stereo partly drawn) [THP-B368] , its DC50 was > 100 nM

----------
# DC50 values compiled below
ASSAY SYSTEM: ER (Homo sapiens (Human), UniProt P03372)
ASSAY INFO: In-cell western blot analysis (ICW), relative ER percentage in treated cells
Type: cell-based
TEST CONTEXT: ER degradation, 16 hours

Take a look at these entries with their results.
INSERT INTO assay_data (compound, result) VALUES
  ('O=C1CCC(N2Cc3c(ccc4c3OCC3(CN(CC5COC6(CCN(c7ccc([C@@H]8c9ccc(O)cc9CC[C@@H]8c8ccccc8)cc7)CC6)OC5)C3)O4)C2=O)C(=O)N1 (stereo partly shown)', '10 to 100 nM'),
  ('O=C1CCC(N2Cc3c(ccc4c3OCC3(CN(CC5CCC6(CCN(c7ccc([C@@H]8c9ccc(O)cc9CC[C@@H]8c8ccccc8)cc7)CC6)OC5)C3)O4)C2=O)C(=O)N1 (stereo partly shown)', '> 100 nM'),
  ('O=C1CC[C@H](N2Cc3cc4c(c(F)c3C2=O)OCC2(CCN(CC3CC5(CCN(c6ccc([C@@H]7c8ccc(O)cc8CC[C@@H]7c7ccccc7)cc6)CC5)C3)CC2)O4)C(=O)N1', '> 100 nM');

Entry `O=C1CC[C@H](N2Cc3c(ccc4c3OCC3(CCN(CC5COC6(CCN(c7ccc([C@@H]8c9ccc(O)cc9CC[C@@H]8c8ccccc8)cc7)CC6)OC5)CC3)O4)C2=O)C(=O)N1` , tested on ER (Homo sapiens (Human), UniProt P03372), has a reported DC50 of < 10 nM
